- test description: A CellTox Green Cytotoxicity Assay to monitor cytotoxicity in HEK293 cells - 40 hour (AID 1224871); note: nearly all actives have a fitted effect of over 45% in size
- test context: CellTox Green fluorescence; series mostly up to 76.8 µM
Results filed as inconclusive are left out. Activity calls are given as the source filed them. Calls come from the whole dose curve; as a rule, active = well fitted activation curve with a large enough effect in the repeat runs; inconclusive = weak or mixed curves; inactive = flat fitted curve, though single readings scatter.
Valid outcomes are listed here; reply with one: True (active), False (inactive)

Enquiry: Outcome logged for C[C@@H]1CC[C@@]2(OC1)O[C@H]1[C@@H](O)[C@H]3[C@@H]4CC[C@H]5C[C@@H](O[C@@H]6O[C@H](CO)[C@H](O[C@@H]7O[C@H](CO)[C@@H](O)[C@H](O[C@@H]8OC[C@@H](O)[C@H](O)[C@H]8O)[C@H]7O[C@@H]7O[C@H](CO)[C@@H](O)[C@H](O[C@@H]8O[C@H](CO)[C@@H](O)[C@H](O)[C@H]8O)[C@H]7O)[C@H](O)[C@H]6O)[C@H](O)C[C@]5(C)[C@H]4CC[C@]3(C)[C@H]1[C@@H]2C in this assay:
Return: True

Enquiry: Outcome logged for CCCCCCCCCCCCCCCCCCn1cc[n+](C)c1 in this assay:
Return: True

Where do these numbers come from? They come from PubChem BioAssay (Tox21).
